Test system: HCT-116
Experiment: NCI tumour cell line growth inhibition, 48 h
The source made the active and inactive calls. No stated cut-off is given here; in the data, active = GI50 up to about 1.1 µM and inactive = higher.
Items are presented alongside their recorded GI50.
endpoint-name: GI50

{"molecule": "NS(=O)(=O)c1ccc(N2C(=O)C(=O)N(c3ccccc3)C2=S)cc1", "result": "> 100 µM (inactive)"}
{"molecule": "N#Cc1c(C#N)c(SSc2c(C#N)c(C#N)c(N)n2-c2cccc3ccccc23)n(-c2cccc3ccccc23)c1N", "result": "2.37 µM (inactive)"}
{"molecule": "CC(C)c1ccc(/C=C2\\CSCC3=C2N=C2SCC(=O)N2C3c2ccc(C(C)C)cc2)cc1 (centres undefined)", "result": "> 100 µM (inactive)"}
{"molecule": "O=C(CCN1CCOCC1)/C(=C/c1ccccc1)c1ccccc1", "result": "3.47 µM (inactive)"}
{"molecule": "COc1c(C)c(O)c2c(=O)cc(-c3ccccc3)oc2c1C", "result": "> 100 µM (inactive)"}
{"molecule": "CN(C)c1ccc(/C=C(\\NC(=O)c2ccccc2)c2nn(C)c(=O)o2)cc1", "result": "> 100 µM (inactive)"}
{"molecule": "O=c1oc2ccccc2c(Nc2ccc3c(c2)Oc2ccccc2O3)c1[N+](=O)[O-]", "result": "31.8 µM (inactive)"}
{"molecule": "O=C(NN1C(=O)c2ccccc2C1=O)c1ccccc1Nc1ccccc1C(=O)NN1C(=O)c2ccccc2C1=O", "result": "> 100 µM (inactive)"}
{"molecule": "Cc1ccc(C2=C(c3ccccc3)C(O)(c3ccccc3)C(c3ccccc3)=C2c2ccc(C)cc2)cc1", "result": "29.9 µM (inactive)"}

====

Test system: HOP-62
Assay: NCI tumour cell line growth inhibition, 48 h
Calls of active or inactive are those of the source. No stated cut-off is given here; in the data, active = GI50 up to about 1.1 µM and inactive = higher.

{"compound": "C=C1CC2(C)CCC(OC(=O)C3(C)OC3C)C(C)(OC(C)=O)C2CC1=C(C)C (stereo unspecified)", "GI50": "> 100 µM (inactive)"}
{"compound": "CCN(CC)CCOC(=O)/C(=C/c1ccc(OC)cc1)c1cc(OC)c(OC)c(OC)c1", "GI50": "3.8 µM (inactive)"}
{"compound": "Cc1ccc(NC(=O)C2C3C=CC(O3)C2C(=O)O)cc1 (stereo unspecified)", "GI50": "> 100 µM (inactive)"}
{"compound": "COc1cc(OC)cc(OCc2nc3cc(C(F)(F)F)ccc3nc2-c2ccccc2)c1", "GI50": "> 100 µM (inactive)"}
{"compound": "Cc1cccnc1N/C=C1\\C(=O)NC(=O)N(C)C1=O", "GI50": "> 100 µM (inactive)"}
{"compound": "CC1(C=O)C(=O)CCC2(C)C3CC(=O)OC3CCC12 (stereo unspecified)", "GI50": "> 100 µM (inactive)"}
{"compound": "CC(=O)Nc1ccc2c(c1)C(=O)c1ccccc1-2", "GI50": "> 100 µM (inactive)"}
{"compound": "O=C1c2cccc3cc([N+](=O)[O-])cc(c23)C(=O)N1NC1=NCCN1", "GI50": "> 100 µM (inactive)"}
{"compound": "Nc1nncs1", "GI50": "724 µM (inactive)"}
{"compound": "Clc1ccccc1CN1COc2c(ccc3cccnc23)C1", "GI50": "2.69 µM (inactive)"}
{"compound": "CCCCCCCCCCCCCCCCNC(=O)/C(=C\\c1ccc(Cl)c(Cl)c1)NC(=O)c1ccccc1", "GI50": "21.4 µM (inactive)"}

====

Test system: MDA-MB-435
Experiment: NCI tumour cell line growth inhibition, 48 h
Calls of active or inactive are those of the source. Cut-off read from the data, not from the text of the source: active = GI50 up to about 1.1 µM and inactive = higher.

{"compound": "CCOC(=O)CCN1C(=O)c2c(NC(=O)C(=O)O)cccc2S1(=O)=O", "target-under-test": "MDA-MB-435", "GI50": "> 100 µM (inactive)"}
{"compound": "CCOC(=O)C1=C(C)N(CC(C)C)C2(O)C(OC)CC(=O)C3C(=O)N(c4ccccc4)C(=O)C132 (stereo not given)", "target-under-test": "MDA-MB-435", "GI50": "37 µM (inactive)"}
{"compound": "CN(C(=O)CCC(=O)O)c1ccccc1C(=O)O", "target-under-test": "MDA-MB-435", "GI50": "> 100 µM (inactive)"}
{"compound": "O=[N+]([O-])C(=C(N1CCCCC1)N1CCCCC1)/C(Cl)=C(\\Cl)[N+](=O)[O-]", "target-under-test": "MDA-MB-435", "GI50": "5.01 µM (inactive)"}
{"compound": "O=C(Nc1ccccc1C(=O)NCCCO)/C(=C/c1ccccc1O)NC(=O)c1ccccc1", "target-under-test": "MDA-MB-435", "GI50": "> 50.5 µM (inactive)"}
{"compound": "CN(/N=C/C=N/N(C)C1=NCCCN1)C1=NCCCN1", "target-under-test": "MDA-MB-435", "GI50": "> 100 µM (inactive)"}
{"compound": "O=C1O/C(=C(/Br)c2ccc(Cl)c(Cl)c2)c2ccccc21", "target-under-test": "MDA-MB-435", "GI50": "> 10 µM (inactive)"}
{"compound": "O=C(O)c1cc2ccccc2c(/N=N/c2ccc(S(=O)(=O)O)cc2)c1O", "target-under-test": "MDA-MB-435", "GI50": "> 100 µM (inactive)"}
{"compound": "Cc1ccc(S(=O)(=O)n2cc(C=O)c(-c3cn(S(=O)(=O)c4ccc(C)cc4)cc3-c3cn(S(=O)(=O)c4ccc(C)cc4)cc3C=O)c2)cc1", "target-under-test": "MDA-MB-435", "GI50": "44.8 µM (inactive)"}
{"compound": "CCOC(=O)N1N=C(/C(C)=N/OC)C(C)[S+]1[O-] (stereo not given)", "target-under-test": "MDA-MB-435", "GI50": "> 100 µM (inactive)"}

====

Tested on: HT-29
Assay: NCI tumour cell line growth inhibition, 48 h
Activity calls are given as the source filed them. No stated cut-off is given here; in the data, active = GI50 up to about 1.1 µM and inactive = higher.
Labels: y (active), n (inactive)

{"compound": "CCN(CC)CCNc1n[n+]([O-])c2cc([N+](=O)[O-])ccc2[n+]1[O-]", "group": "y"}
{"compound": "Cc1ccc(S(=O)(=O)n2cc(C=O)c(-c3cn(S(=O)(=O)c4ccc(C)cc4)cc3-c3cn(S(=O)(=O)c4ccc(C)cc4)cc3C=O)c2)cc1", "group": "n"}
{"compound": "O=C1OC2(c3ccccc3Oc3ccccc32)c2ccccc21", "group": "n"}
{"compound": "CC(=O)Nc1ccc2c(c1)C(=O)c1ccccc1-2", "group": "n"}
{"compound": "O=C1c2cccc3cc([N+](=O)[O-])cc(c23)C(=O)N1NC1=NCCN1", "group": "n"}
{"compound": "CC(=O)Nc1ccc(NNc2cc(=O)n(C)c(=O)[nH]2)cc1", "group": "n"}
{"compound": "O=C1C=C(NCC(c2ccccc2)c2ccccc2)C(=O)c2ncccc21", "group": "n"}
{"compound": "CC(=O)Nc1ccc(NC(=O)c2c(Cl)c(Cl)c(Cl)c(Cl)c2-c2nc3ccccc3[nH]2)cc1", "group": "n"}
{"compound": "Nc1nncs1", "group": "n"}
{"compound": "CC1(C)C(c2ccccc2)C12CCC1(C2=O)C(c2ccccc2)C1(C)C (stereo unspecified)", "group": "n"}
{"compound": "CCCCSN1C(=O)c2ccccc2C1=S", "group": "n"}

====

System: DMS-114
Assay: NCI tumour cell line growth inhibition, 48 h
Activity calls are given as the source filed them. Cut-off read from the data, not from the text of the source: active = GI50 up to about 1.1 µM and inactive = higher.
Items are presented alongside their recorded GI50.

{"compound": "CC(C)CC(=O)N1CCN(C(=O)CC(C)C)c2ccccc21", "GI50": "> 100 µM (inactive)"}
{"compound": "CCOC(=O)Cc1cc(OC)c(OC)cc1/C(Cl)=C(\\C=O)c1ccc(OC)c(OC)c1", "GI50": "18.2 µM (inactive)"}
{"compound": "CCC1C(C#N)=C(O)NC(O)=C1C#N", "GI50": "> 100 µM (inactive)"}
{"compound": "CC(=O)C1CC=C(C)CC1 (centres undefined)", "GI50": "> 100 µM (inactive)"}
{"compound": "CCN(CC)C1CC(n2cc(C)c(=O)[nH]c2=O)OC1CO (centres undefined)", "GI50": "> 100 µM (inactive)"}
{"compound": "ON=C1CCC(c2ccccc2)CC1 (centres undefined)", "GI50": "> 100 µM (inactive)"}
{"compound": "COc1c(C)c(O)c2c(=O)cc(-c3ccccc3)oc2c1C", "GI50": "> 100 µM (inactive)"}
{"compound": "CC(=O)OC1CC[C@@]2(C)C(CC[C@]3(C)C2CC=C2[C@@H]4CC(C)(C)CCC4(C)CCC23C)[C@@]1(C)C(=O)O (some centres undefined)", "GI50": "16.4 µM (inactive)"}
{"compound": "N=C(NC(=S)N1CCCCC1)N1CCCCC1", "GI50": "> 100 µM (inactive)"}
